From: PubChem BioAssay (NCI)

test.details: NCI Yeast Anticancer Drug Screen. Data for the rad50 strain (AID 155);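 note: 0% = growth of vehicle-only cultures of the same strain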
assay.conditions: S. cerevisiae rad50 strain growth inhibition; at 11.0 µM; hits give high values
About 79,000 compounds went through this panel and 15% of them were active in at least one assay; those are over-represented in the sample as a whole. Active and inactive are the calls of the source. Cut-off read from the data, not from the text of the source: active = growth inhibition above about 70%; inactive = the rest.
Listed here are compounds together with their documented growth inhibition.

Known growth inhibition results, listed for orientation:
C/C(=N\NC(N)=O)C(CN1CCOCC1)C(c1ccccc1)c1c(O)c2ccccc2oc1=O (centres undefined) :: 9% (inactive)
CC1=C[C@H]2O[C@@H]3C[C@H]4OC(=O)/C=C\C=C\C(C(C)O)OCC(O)C(C)CC(=O)OC[C@@]2(C[C@@H]1O)[C@]4(C)[C@@]31CO1 (some centres undefined) :: 92% (active)
O=[N+]([O-])c1ccc(-n2nc3ccc4c(no[n+]4[O-])c3[n+]2[O-])c([N+](=O)[O-])c1 :: -5% (inactive)
CN(CCc1ccc(Br)cc1)CCN1CCCCC1 :: 38% (inactive)

Which growth inhibition reading was recorded for the compound CCN(CCCl)c1cc(CN(C)C)cc(NC(=O)c2ccc(C(=O)Nc3cc(CN(C)C)cc(N(CC)CCCl)c3)cc2)c1 ?
4% (inactive)

Which growth inhibition reading was recorded for the compound O=C(Nc1cc(Cl)ccc1Cl)C(Cl)(Cl)Cl ?
13% (inactive)

Which growth inhibition reading was recorded for the compound Cc1ccc2c(c1)C1(C)c3cc(C)ccc3SP1S2 (centres undefined) ?
18% (inactive)

Which growth inhibition reading was recorded for the compound COc1cc([C@@H]2c3cc4c(cc3C[C@@H]3COC(=O)C32)OCO4)cc(OC)c1O (some centres undefined) ?
94% (active)

Which growth inhibition reading was recorded for the compound O=C(NNC(=O)OCC(Cl)(Cl)Cl)OCC(Cl)(Cl)Cl ?
0% (inactive)

* * *

Listed here are molecules together with their documented growth inhibition.
test.details: NCI Yeast Anticancer Drug Screen. Data for the mec2-1 strain (AID 157)
assay.conditions: S. cerevisiae mec2-1 strain, at 50.0 µM (retest, dose inferred, filed as 5.0), hits give high values
The panel holds about 79,000 compounds, 15% with a hit somewhere; the sample as a whole holds those more often.
// note: answer is a bare numeric in %

Which growth inhibition reading was recorded for the molecule NCC(O)c1cccc(O)c1 (stereo not drawn) ?
50

Which growth inhibition reading was recorded for the molecule O=C(O)CP(=O)(c1ccccc1)c1ccccc1.O=C(O)CP(=O)(c1ccccc1)c1ccccc1.[Cd] ?
51

Which growth inhibition reading was recorded for the molecule C=C(C)C1(CCCC)C(=O)NC(=S)NC1=O ?
49

* * *

test.details: NCI Yeast Anticancer Drug Screen. Data for the rad50 strain (AID 155);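 note: 0% = growth of vehicle-only cultures of the same strain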
assay.conditions: S. cerevisiae rad50 strain growth inhibition; at 5.0 µM (retest, dose inferred, filed as 0.5)
The panel holds about 79,000 compounds, 15% with a hit somewhere; the sample as a whole holds those more often. Active and inactive are the calls of the source. Cut-off read from the data, not from the text of the source: active = growth inhibition above about 70%; inactive = the rest.
Select the correct class. Options are active, inactive and nothing else.

Worked set:
CCCCCOC(=O)CCl :: inactive
Cc1oc2c([N+](=O)[O-])cccc2c1[N+](=O)[O-] :: active
CCc1ccc2c(c1)N(CCCN(CCCl)CCCl)c1ccccc1S2 :: inactive
COc1cccc2c1C(=O)c1c(O)c3c(c(O)c1C2=O)C[C@@](O)(C(C)=O)C[C@@H]3OC1CC(N)C(OC2CC(O)C(O)C(C)O2)C(C)O1 (stereo not given in full) :: inactive

# outcome recorded in this test, key = CCOP(=S)(OCC)SC(O)(C(F)F)C(F)F
inactive

# outcome recorded in this test, key = CS/C([S-])=N/N=C(C)C.CS/C([S-])=N/N=C(C)C.[Ni+2]
inactive

# outcome recorded in this test, key = O=P(CCCCP(=O)(c1ccccc1)c1ccccc1)(c1ccccc1)c1ccccc1.[Cl][Sn]([Cl])([c]1ccccc1)[c]1ccccc1
inactive

# outcome recorded in this test, key = CCCCCCCCCCCC(=O)[O][Hg][c]1ccccc1
active

# outcome recorded in this test, key = CCCCCCCCCCCCCCCC[N+](C)(C)CCBr
active
